Sourced from patent US20200277377A1

For each record, write down the corresponding Kd.
Target: T1, human CTLA-4.ECD-6×His (human, UniProt P16410 36-161)
T1 construct: extracellular domain; also called WBP316.hCTLA-4.ECD-6×His; hCTLA4-His (WT)
T1 sequence: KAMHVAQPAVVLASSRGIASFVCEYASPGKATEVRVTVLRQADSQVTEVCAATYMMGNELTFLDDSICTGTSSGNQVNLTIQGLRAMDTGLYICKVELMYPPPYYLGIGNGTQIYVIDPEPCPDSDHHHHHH
Experiment: SPR, antibody captured on anti-human Fc, CTLA-4.ECD-6×His as analyte, 1:1 fit
One number for each entry, in pM.

Please review the following examples before continuing.
W3162-1.146.19 xAb.IgG1 (antibody, V domains shown, Chimeric: rat variable regions fused with constant region of human antibody (label xAb.IgG1)) VH: EVQLQESGPGLVKPSQSLSLTCSVTYHTITSGYDWTWIRKFPGNQMEWMGYISYSGNTNYNPSLKSRISITRDTSKNQFFLHLNSVTSEDTATYYCASMMVPHYYVMDAWGQGASVTVSS VL: DVVLTQTPPTSSATIGQSVSISCRSSQSLLNSDGNTYLYWYLQRPSQSPQLLIYLVSKLGSGVPNRFSGSGSGTDFTLKISGVEAEDLGLYYCVQGTHDPWTFGGGTKLELK
208
W3162_1.145.10-z7-uAb.IgG1K (antibody, V domains shown, Humanized; label says IgG1K; also called W145) VH: EVQLVESGGGLVQPGGSLRLSCAASDLTFSNYDMAWVRQAPGKGLEWVASISPSGGNTYYRDSVKGRFTISRDNAKNSLYLQMNSLRAEDTAVYYCARHLWFAYWGQGTLVTVSS VL: DIQMTQSPSSLSASVGDRVTITCQASQDIGSNLIWFQQKPGKAPKPMIYYATHLADGVPSRFSGSRSGTDYTLTISSLQPEDFATYYCLQYKQYPRTFGGGTKVEIK
1840

// switching to the query binder
Incoming: Give reported Kd value for W3162-1.146.19-z12-uAb.IgG1K (antibody, V domains shown, Humanized; label says IgG1K) VH: QVQLQESGPGLVKPSETLSLTCSVTYHTITSGYDWTWIRKPPGKGMEWIGYISYSGNTNYNPSLKSRVTISRDTSKNQFFLKLSSVTAADTAVYYCASMMVPHYYVMDAWGQGTLVTVSS VL: DIVMTQTPLSLSVTPGQPASISCRSSQSLLNSDGNTYLYWYLQKPGQSPQLLIYLVSKLGSGVPNRFSGSGSGTDFTLKISRVEAEDVGVYYCVQGTHDPWTFGGGTKVEIK
Outgoing: 477
